System: PC-3 prostate
ASSAY METHOD TEXT: NCI-60 one-dose screen, 48 h (100 = growth as untreated, 0 = no growth, -100 = all killed)
SETTINGS: 10 µM unless noted
About 83,000 compounds went through this panel and 20% of them were active in at least one assay; those are over-represented in the sample as a whole.
Measured growth, listed per entry.
MEASURE: growth (%)

COc1ccc(C(=O)/C=C/c2cccc(Cl)c2Cl)cc1S(N)(=O)=O    5
COC(OC)C1=C(C)OC(N)=C(C#N)C12C(=O)Nc1ccccc12 (stereo not given)    92.8
CCCCCCCCc1ccc(C(=O)Nc2cccc(P(=O)(O)O)c2)cc1    92.9
COc1ccc(/C=C2\C(=N)N=C(SCc3nc4ccccc4[nH]3)NC2=O)cc1    122
COc1ccc(-c2ccnc(SCc3cc4cc(OC)ccc4[nH]c3=O)n2)cc1    23.8

----------
System: OVCAR-8 ovarian
ASSAY METHOD TEXT: NCI-60 one-dose screen, 48 h (100 = growth as untreated, 0 = no growth, -100 = all killed)
SETTINGS: 10 µM unless noted
About 83,000 compounds went through this panel and 20% of them were active in at least one assay; those are over-represented in the sample as a whole.
Would you mind labelling by growth? At or over 30% is true, under is false.

CCN(CC)c1ccnc(CNCCSC(c2ccccc2)(c2ccccc2)c2ccc(OC)cc2)c1    false
CCCCCCCCc1ccc(C(=O)Nc2cccc(P(=O)(O)O)c2)cc1    true
CC(=O)N1CCN(Cc2ccc3c(NNC(=O)c4cnccn4)nc4cc(F)ccc4n23)CC1    false
COc1ccc(-c2nc(SCC(C)C)nc(NCCc3c[nH]c4ccccc34)c2C#N)cc1    true
NS(=O)(=O)c1ccc(-n2cc(-c3cccc(NC(=O)c4cc(N5CCOCC5)cc(C(F)(F)F)c4)c3)nn2)cc1    false
COc1ccc(-c2ccc(SCC(=O)NCCc3ccc(S(N)(=O)=O)cc3)nn2)cc1    true
COc1cccc(COc2ccc(NC(=O)Nc3ccc(Cl)c(C(F)(F)F)c3)cc2)c1    true
COc1cc2c(c(OC)c1OC)C(=O)CC(c1cccc(NC(=O)c3cccc([N+](=O)[O-])c3)c1)O2 (centres undefined)    false
COc1ccc(Cc2nn(CC(=O)N/N=C/c3ccc(F)cc3)c(=O)c3c(C)noc23)cc1    true
CCC(C)(C)c1ccc(OCCCCN2CCN(c3ccncc3)CC2)cc1    true
O=C(O)c1cccc(-c2ccc(/C=N/NC(=O)c3[nH]c4ccc(Br)cc4c3-c3ccccc3)o2)c1    true
C#CCOc1cc(N(CC)CC)ccc1C(C(=O)NC(C)(C)C)N(C(=O)C1CCc2cc(F)ccc2O1)c1ccc(F)cc1 (centres undefined)    true
CN(C)CCn1c2ccccc2c2nc3cc(C(F)(F)F)ccc3nc21    true
Cc1cc2nc3c4ccccc4n(CCCN(C)C)c3nc2cc1C    false
COc1cc(C2CC(c3ccc(S(=O)(=O)NCCNc4nc(Nc5ccc(F)cc5)nc(N(C)C)n4)cc3)=Nc3c(N)nc(N)nc3N2)cc(OC)c1OC (centres undefined)    true
O=C(/C=C/c1ccc(O)c(O)c1)NC1CCOC1O (centres undefined)    true
COc1ccc(-c2c(Nn3cnnn3)no[n+]2[O-])cc1    true
O=C(NN1C(=O)/C(=C/C=C/c2ccc([N+](=O)[O-])o2)SC1=S)c1ccc(Cl)cc1    false
CC(=O)Nc1ccc(-c2nc3cc(-c4ccc(O)cc4)ccc3n2C)cc1    true
